- Test system: MA104 cells
- ASSAY SUMMARY: Cytotoxicity test (cell morphology, trypan blue viability): non-toxic dose on MA104 cells
- Assay type: cell-based
- RUN PARAMETERS: MA104 cell line, 72 h
RECORDED ENDPOINT: Non-Toxic Doses
A bare number is not enough; add the unit after it.

Use the examples below as a reference point.
>>> result("N#Cc1ccc(CSc2nc3cc4ccccc4cc3c(=O)n2Cc2ccccc2)cc1")
"65 µg/mL"
>>> result("COc1cccc(CSc2nc3cc4ccccc4cc3c(=O)n2C)c1")
"55 µg/mL"
>>> result("O=c1c2cc3ccccc3cc2nc(SCc2ccc(Cl)cc2)n1Cc1ccccc1")
"50 µg/mL"
>>> result("CCn1c(NN)nc2cc3ccccc3cc2c1=O")
"55 µg/mL"
>>> result("O=c1c2cc3ccccc3cc2[nH]c(=S)n1Cc1ccccc1")
"75 µg/mL"

Query block: Supply reported Non-Toxic Doses belonging to this compound: `NNc1nc2cc3ccccc3cc2c(=O)n1Cc1ccccc1`
Result block: 60 µg/mL

Query block: Supply reported Non-Toxic Doses belonging to this compound: `CCn1c(SCCCN2C(=O)c3ccccc3C2=O)nc2cc3ccccc3cc2c1=O`
Result block: 30 µg/mL

Query block: Supply reported Non-Toxic Doses belonging to this compound: `Cn1c(SCc2cccc(C#N)c2)nc2cc3ccccc3cc2c1=O`
Result block: 75 µg/mL

Query block: Supply reported Non-Toxic Doses belonging to this compound: `CCn1c(SCc2ccc(Cl)cc2)nc2cc3ccccc3cc2c1=O`
Result block: 60 µg/mL

---

- Tested on: MA104 cells
- ASSAY SUMMARY: Cytotoxicity test (cell morphology, trypan blue viability): non-toxic dose on MA104 cells
- Type: cell-based
- RUN PARAMETERS: MA104 cell line, 72 h
RECORDED ENDPOINT: Non-Toxic Doses (µg/mL)
Please reply with the bare figure in µg/mL and do not write the unit itself.

>>> result("CCn1c(SCc2cccc(OC)c2)nc2cc3ccccc3cc2c1=O [Compound 5]")
55

Query block: Supply reported Non-Toxic Doses belonging to this molecule: O=C1c2ccccc2C(=O)N1CCCSc1nc2cc3ccccc3cc2c(=O)n1Cc1ccccc1 [Compound 13]
Result block: 50

Query block: Supply reported Non-Toxic Doses belonging to this molecule: CCn1c(=S)[nH]c2cc3ccccc3cc2c1=O [Compound 2]
Result block: 60

---

- System: BGM cells
- ASSAY SUMMARY: Cytotoxicity test (cell morphology, trypan blue viability): non-toxic dose on BGM cells
- Type: cell-based
- RUN PARAMETERS: BGM cell line, 72 h
Overview of recorded Non-Toxic Doses for various molecules
Please reply with the bare figure in µg/mL and do not write the unit itself.

Use the examples below as a reference point.
>>> result("CCn1c(NN)nc2cc3ccccc3cc2c1=O")
55
>>> result("O=c1c2cc3ccccc3cc2nc(SCc2ccc(Cl)cc2)n1Cc1ccccc1")
50
>>> result("NNc1nc2cc3ccccc3cc2c(=O)n1Cc1ccccc1")
60

Query block: Supply reported Non-Toxic Doses belonging to this molecule: `CCn1c(SCc2ccc(Cl)cc2)nc2cc3ccccc3cc2c1=O`
Result block: 60

Query block: Supply reported Non-Toxic Doses belonging to this molecule: `O=c1c2cc3ccccc3cc2[nH]c(=S)n1Cc1ccccc1`
Result block: 60

Query block: Supply reported Non-Toxic Doses belonging to this molecule: `Cn1c(SCc2cccc(C#N)c2)nc2cc3ccccc3cc2c1=O`
Result block: 65

Query block: Supply reported Non-Toxic Doses belonging to this molecule: `CCn1c(SCCCN2C(=O)c3ccccc3C2=O)nc2cc3ccccc3cc2c1=O`
Result block: 25

Query block: Supply reported Non-Toxic Doses belonging to this molecule: `CCn1c(SCc2ccc(C#N)cc2)nc2cc3ccccc3cc2c1=O`
Result block: 50

Query block: Supply reported Non-Toxic Doses belonging to this molecule: `COc1cccc(CSc2nc3cc4ccccc4cc3c(=O)n2Cc2ccccc2)c1`
Result block: 65

Query block: Supply reported Non-Toxic Doses belonging to this molecule: `Cn1c(NN)nc2cc3ccccc3cc2c1=O`
Result block: 55

Query block: Supply reported Non-Toxic Doses belonging to this molecule: `O=C1c2ccccc2C(=O)N1CCCSc1nc2cc3ccccc3cc2c(=O)n1Cc1ccccc1`
Result block: 40

Query block: Supply reported Non-Toxic Doses belonging to this molecule: `N#Cc1ccc(CSc2nc3cc4ccccc4cc3c(=O)n2Cc2ccccc2)cc1`
Result block: 65

---

- Tested on: Hep-2 cells
- ASSAY SUMMARY: Cytotoxicity test (cell morphology, trypan blue viability): non-toxic dose on Hep-2 cells
- Format: cell-based
- RUN PARAMETERS: Hep-2 cell line, 72 h
Cut-off 60 µg/mL on Non-Toxic Doses: below means 1, at or above means 0.

Please review the entries below; each comes with its answer.
>>> answer_label("COc1cccc(CSc2nc3cc4ccccc4cc3c(=O)n2C)c1")
1
>>> answer_label("O=C1c2ccccc2C(=O)N1CCCSc1nc2cc3ccccc3cc2c(=O)n1Cc1ccccc1")
1
>>> answer_label("Cn1c(=S)[nH]c2cc3ccccc3cc2c1=O")
0
>>> answer_label("O=c1c2cc3ccccc3cc2[nH]c(=S)n1Cc1ccccc1")
0
>>> answer_label("CCn1c(SCc2ccc(C#N)cc2)nc2cc3ccccc3cc2c1=O")
1

Query block: Identify whether the compound `CCn1c(NN)nc2cc3ccccc3cc2c1=O` records Non-Toxic Doses below 60 µg/mL.
Result block: 1

---

- Test system: Hep-2 cells
- ASSAY SUMMARY: Cytotoxicity test (cell morphology, trypan blue viability): non-toxic dose on Hep-2 cells
- Assay type: cell-based
- RUN PARAMETERS: Hep-2 cell line, 72 h
Overview of recorded Non-Toxic Doses for various molecules
Please reply with the bare figure in µg/mL and do not write the unit itself.

>>> result("O=c1c2cc3ccccc3cc2nc(SCc2ccc(Cl)cc2)n1Cc1ccccc1")
50
>>> result("N#Cc1ccc(CSc2nc3cc4ccccc4cc3c(=O)n2Cc2ccccc2)cc1")
65

Query block: Supply reported Non-Toxic Doses belonging to this molecule: `CCn1c(SCCCN2C(=O)c3ccccc3C2=O)nc2cc3ccccc3cc2c1=O`
Result block: 30

Query block: Supply reported Non-Toxic Doses belonging to this molecule: `COc1cccc(CSc2nc3cc4ccccc4cc3c(=O)n2Cc2ccccc2)c1`
Result block: 65

Query block: Supply reported Non-Toxic Doses belonging to this molecule: `NNc1nc2cc3ccccc3cc2c(=O)n1Cc1ccccc1`
Result block: 65

Query block: Supply reported Non-Toxic Doses belonging to this molecule: `Cn1c(SCc2cccc(C#N)c2)nc2cc3ccccc3cc2c1=O`
Result block: 70

---

- Test system: MA104 cells
- ASSAY SUMMARY: Cytotoxicity test (cell morphology, trypan blue viability): non-toxic dose on MA104 cells
- Format: cell-based
- RUN PARAMETERS: MA104 cell line, 72 h
RECORDED ENDPOINT: Non-Toxic Doses (µg/mL)
Please reply with the bare figure in µg/mL and do not write the unit itself.

Use the examples below as a reference point.
>>> result("COc1cccc(CSc2nc3cc4ccccc4cc3c(=O)n2Cc2ccccc2)c1")
65
>>> result("Cn1c(NN)nc2cc3ccccc3cc2c1=O")
60
>>> result("Cn1c(=S)[nH]c2cc3ccccc3cc2c1=O")
65

Query block: Supply reported Non-Toxic Doses belonging to this molecule: `CCn1c(SCc2ccc(C#N)cc2)nc2cc3ccccc3cc2c1=O`
Result block: 55

---

Overview of recorded Non-Toxic Doses for various compounds
- Test system: BGM cells
- ASSAY SUMMARY: Cytotoxicity test (cell morphology, trypan blue viability): non-toxic dose on BGM cells
- Format: cell-based
- RUN PARAMETERS: BGM cell line, 72 h

Use the examples below as a reference point.
>>> result("CCn1c(SCc2cccc(OC)c2)nc2cc3ccccc3cc2c1=O")
"55 µg/mL"
>>> result("COc1cccc(CSc2nc3cc4ccccc4cc3c(=O)n2C)c1")
"50 µg/mL"
>>> result("CCn1c(=S)[nH]c2cc3ccccc3cc2c1=O")
"60 µg/mL"

Query block: Supply reported Non-Toxic Doses belonging to this compound: `Cn1c(=S)[nH]c2cc3ccccc3cc2c1=O`
Result block: 60 µg/mL
